Data origin: ChEMBL document CHEMBL5532655

Assay notes: Half life in Sprague-Dawley rat at 10 mg/kg,po administration measured upto 24 hrs by LC-MS/MS analysis
Format: ADME, organism-based
Run parameters: in vivo
Assay metric: half-life (h)
Value expressed in h; do not type the unit.

Returns the measured half-life for the input compound. Input: COc1cc2c(cc1-c1c(C)noc1C)ncc1nc(C)n([C@H](C)c3ccccc3)c12
2.65

###

System: MOLM-13
Assay notes: cells
Run parameters: Homo sapiens, MOLM-13, 48 h
Description: Antiproliferative activity against human MOLM-13 cells assessed as inhibition of cell growth incubated for 48 hrs by MTT assay
Assay metric: IC50

Could you tell me which IC50 is on file for COc1ccc(-n2c(C)nc3cnc4cc(-c5ccc(C#N)cc5)c(OC)cc4c32)cc1 ?
> 20 µM

Another compound: COc1ccc(-n2c(C)nc3cnc4cc(-c5cnc(N)nc5)c(OC)cc4c32)cc1
> 20 µM

Thanks! And COc1ccc(-c2cc3ncc4nc(C)n([C@@H](C)c5ccccc5)c4c3cc2OC)cc1CO ?
> 20 µM

One more compound: COc1ccc(-n2c(C)nc3cnc4cc(-c5ccc(C(F)(F)F)cc5)c(OC)cc4c32)cc1
> 20 µM

Try the compound COc1ccc(-n2c(C)nc3cnc4cc(-c5ccc(N)cc5)c(OC)cc4c32)cc1
> 20 µM

Try this compound next: COc1ccc(-n2c(C)nc3cnc4cc(-c5c(C)n[nH]c5C)c(OC)cc4c32)cc1
> 20 µM

Would you kindly repeat that for COc1ccc(-n2c(C)nc3cnc4cc(-c5ccc6nc[nH]c6c5)c(OC)cc4c32)cc1 ?
> 20 µM

Moving on to COc1cc2c(cc1-c1cnn(C)c1)ncc1nc(C)n([C@H](C)c3ccccc3)c12
> 20 µM

Ok, now COc1ccc(-n2c(C)nc3cnc4cc(-c5cnc6[nH]ccc6c5)c(OC)cc4c32)cc1
> 20 µM

Another: COc1ccc(-n2c(C)nc3cnc4cc(-c5ccc(OC)c(CO)c5)c(OC)cc4c32)cc1
> 20 µM

Further, for COc1cc2c(cc1-c1cnn(C)c1)ncc1nc(C)n([C@@H](C)c3ccccc3)c12 ?
> 20 µM
